Test: xn = mol fraction of the nth substance listed, in the solute-free solvent
Conditions: 288.15 K; x2 = 0.7297
Short version: solubility (g/100 g solution) at least 1 is Met, less is Not met.

Hi team, for CN1CCC(N(Cc2cccs2)c2ccccc2)CC1 + CC(C)O + O , is the recorded solubility (g/100 g solution) at or above 1?
Met

Given the entry CN1CCC(N(Cc2cccs2)c2ccccc2)CC1 + CCCO + O , answer whether its solubility (g/100 g solution) meets or surpasses 1.
Met

Kindly determine if solubility (g/100 g solution) recorded for Nc1cccc2ccncc12 + CC(C)O + O is above or exactly 1.
Not met

Decide: is the reported value of solubility (g/100 g solution) for Nc1cccc2ccncc12 + CCCO + O equal to or greater than 1?
Met
